Test: Excitation and emission fluorescence spectra of coumarin derivatives
Assay type: physicochemical
Parameters: dose or concentration left out as unconfirmed

[
  {
    "molecule": "O=c1oc2cc(O)ccc2cc1-c1ccc(F)cc1",
    "Fluorescence EMmax [nm]": 466
  },
  {
    "molecule": "CN(C)c1ccc(-c2cc3ccc(O)cc3oc2=O)cc1",
    "Fluorescence EMmax [nm]": 457
  },
  {
    "molecule": "O=c1oc2cc(O)ccc2cc1-n1cncn1",
    "Fluorescence EMmax [nm]": 494
  },
  {
    "molecule": "COc1ccc(-c2cc3ccc(O)cc3oc2=O)cc1 [Compound 3, 7-hydroxy-3-(4-methoxyphenyl)coumarin]",
    "Fluorescence EMmax [nm]": 472
  }
]
